Target: GORASP1, Q9BQQ3
Sequence (Q9BQQ3 1-208): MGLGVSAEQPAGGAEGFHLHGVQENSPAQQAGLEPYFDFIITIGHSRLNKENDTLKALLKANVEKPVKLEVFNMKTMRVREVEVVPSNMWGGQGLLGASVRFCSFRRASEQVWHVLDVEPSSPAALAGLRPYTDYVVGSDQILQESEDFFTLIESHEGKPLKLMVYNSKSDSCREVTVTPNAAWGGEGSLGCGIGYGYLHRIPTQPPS
Test: holdup assay
Parameters: key: below the threshold = too weak to quantify, mostly under pKd 3.1 to 4
Conditions: plain residues with an end cap or a label only (N-terminal biotin on a linker: ado-ado)
READOUT KIND: pKd
Returns: the value as a bare number; no unit string appended.

Input: Fill in: pKd of SPDRDRESIV [SCN5A, Q14524] is ___
Output: 3.71

Input: Consider the binder shown here: QKAPTKEFYA [SDC2, P34741] What is its recorded pKd?
Output: 3.51

Here is another binder to look at.
Input: Could you tell me which pKd is on file for LPAVCYDIDI [PTTG2, Q9NZH5] ?
Output: 3.89
